Assay: Brain targeting and brain distribution study in rats
Format: in vivo, SD rats
Details: male, SD, rat, iv, plasma, single i.v. 3 mg/kg
Description: Male SD rats weighing 200–250 g (Experimental Animal Center of Dalian Medical University, China) were maintained in standard conditions on a 14 h light/10 h dark cycle provided with food and water ad libitum prior to experimental procedures. […] Pharmacokinetic parameters, such as Cmax (maximum drug concentration), Tmax (the time to Cmax) and AUC0-t (area under plasma concentration-time curve), were calculated by DAS 2.0 (Drug and Statistics ver 2.0, China). […]
READOUT: half-life (h)

{"COMPOUND": "COc1cc(/C=C/c2ccc(O)cc2)cc(OC)c1 [free Pt, 3,5-dimethoxy-4′-hydroxy-trans-stilbene]", "MEASURED": 1.9}

---

Assay: Brain targeting and brain distribution study in rats
Format: in vivo, SD rats
Conditions: male, SD, rat, iv, brain, single i.v. 3 mg/kg

{"COMPOUND": "COc1cc(/C=C/c2ccc(O)cc2)cc(OC)c1 [free Pt, 3,5-dimethoxy-4′-hydroxy-trans-stilbene]", "Cmax [ng/mL]": 78.1}

---

Test: Brain targeting and brain distribution study in rats
Assay type: in vivo, SD rats
Conditions: male, SD, rat, iv, plasma, single i.v. 3 mg/kg
READOUT: Cmax

{"MOLECULE": "COc1cc(/C=C/c2ccc(O)cc2)cc(OC)c1 [free Pt, 3,5-dimethoxy-4′-hydroxy-trans-stilbene]", "MEASURED": "221 ng/mL"}

Hey, just so you know, these numbers are from paper PMC9848421.
